# Tested on: M19-MEL
# experimental protocol: NCI tumour cell line growth inhibition, 48 h
The source made the active and inactive calls. Rule as the data show it: active = GI50 up to about 1.1 µM and inactive = higher.
# output must be one of active, inactive

Here are 6 molecules together with their reported answers.
molecule: CCCCC(=O)OC[n+]1ccc2c(C)c3[nH]c4ccccc4c3c(C)c2c1
assigned class: active
//
molecule: CCCCCCC(=O)C/C(=N/NC(N)=S)C(=O)NC1C2CC3CC(C2)CC1C3 (stereo unspecified)
assigned class: inactive
//
molecule: CCOC(=O)C(C)N1C(=O)c2ccccc2S1(=O)=O (stereo unspecified)
assigned class: inactive
//
molecule: COc1cc(C(C)O)c[n+](Cc2ccccc2)c1 (stereo unspecified)
assigned class: inactive
//
molecule: O=c1nc(-c2ccccc2)c2c3c(cccn13)CCC2
assigned class: inactive
//
molecule: Nc1nc2[nH]cnc2c(=O)[nH]1
assigned class: inactive

[Q] How did this test come out for Cc1cccc(/C=N/N=C(\N)NO)n1 ?
[A] inactive

[Q] Field entry: [N-]=[N+]=Nc1ccccc1-[n+]1noc([O-])c1Br
[A] inactive

[Q] Field entry: N#CC1(C#N)C2C=CC(c3coc4cccc2c34)C1(C#N)C#N (stereo unspecified)
[A] inactive

[Q] Field entry: O=C(CC1Sc2ccccc2NC1=O)Nc1cccc(Cl)c1 (stereo unspecified)
[A] inactive

[Q] Field entry: Cc1nc(-n2nc(-c3ccccc3)cc2-c2ccccc2)sc1C(/C=C/c1ccc([N+](=O)[O-])cc1)=N/NC(N)=S
[A] inactive

* * *

# Test system: SNB-75
# experimental protocol: NCI tumour cell line growth inhibition, 48 h
The source made the active and inactive calls. No stated cut-off is given here; in the data, active = GI50 up to about 1.1 µM and inactive = higher.
# output must be one of active, inactive

molecule: O=C(COc1ccc(/C=C/C(=O)c2ccc(Cl)cc2)cc1)Nc1c(Cl)cccc1Cl
assigned class: inactive

molecule: CC1=C(C)Cc2c(O)ccc(O)c2C1
assigned class: inactive

[Q] How did this test come out for CCn1c(=O)c2nc(SC)sc2n(-c2ccccc2)c1=S ?
[A] inactive

[Q] Field entry: Cc1ccc(Nc2n[nH]c(=S)s2)cc1
[A] inactive

[Q] Field entry: COc1cccc2c1C(=O)c1c(O)c3c(c(O)c1C2=O)C[C@@](O)(C(C)=O)C[C@@H]3OC1OC(C)C(O)C(N)C1Br (stereo partly drawn)
[A] active

[Q] Field entry: CC(C)(C)OC(=O)C#CC[C@H]1CCCC1/C=C/C(O)=C1/C(=O)NC(CCCNC(=O)OC(C)(C)C)C1=O (stereo partly drawn)
[A] inactive

[Q] Field entry: COC(=O)[C@H](Cc1ccccc1)NC(=O)[C@H](Cc1ccccc1)NC(=O)[C@@H]1CCCN1C(=O)N[C@H]1C2C=CC(C2)C1C(=O)N1CCC[C@H]1C(=O)N[C@@H](C)C(=O)N[C@H](C(=O)OC)C(C)C (stereo partly drawn)
[A] inactive

[Q] Field entry: Cn1nc(/C=C\C(=O)N2CC(CCl)c3c2cc(N)c2ccccc32)cc1/C=C/C(=O)N1CC(CCl)c2c1cc(N)c1ccccc21 (stereo not drawn)
[A] active

* * *

# Tested on: M19-MEL
# experimental protocol: NCI tumour cell line growth inhibition, 48 h
The source made the active and inactive calls. Cut-off read from the data, not from the text of the source: active = GI50 up to about 1.1 µM and inactive = higher.
Reported GI50 values for a set of molecules

Worked examples, 3 molecules total:
molecule: COC(=O)C1Cc2c(n(C)c3ccccc23)C(CCC(=O)O)N1Cc1ccccc1 (stereo unspecified)
target or test system: M19-MEL
result: 32.1 µM (inactive)
--
molecule: O=C(O)/C=C/c1c[nH]c(=O)[nH]c1=O
target or test system: M19-MEL
result: > 500 µM (inactive)
--
molecule: COC12C=C(C)C(CC1)CC2C(=O)O (stereo unspecified)
target or test system: M19-MEL
result: > 100 µM (inactive)

[Q] Need GI50 of COc1cccc(NC(=O)CC(=O)NNCC(=O)Nc2nnc(-c3ccc(N(CCC#N)S(=O)(=O)c4ccccc4)cc3)s2)c1 , thanks.
[A] 44.1 µM (inactive)

[Q] Field entry: Cn1c(=O)cc2[nH]c3ccccc3n2c1=O
[A] 33.7 µM (inactive)

[Q] Field entry: O=C(O/N=C1/CCC/C1=C\c1ccccc1)c1ccc(Cl)cc1
[A] > 100 µM (inactive)

* * *

# System: U-251
# experimental protocol: NCI tumour cell line growth inhibition, 48 h
The source made the active and inactive calls. Cut-off read from the data, not from the text of the source: active = GI50 up to about 1.1 µM and inactive = higher.
Reported GI50 values for a set of compounds

Worked examples, 4 compounds total:
compound: CCCCC(C(=O)C(=O)Nc1ccccc1CC)C(=O)C(C)C (stereo not given)
result: > 100 µM (inactive)

compound: COC(=O)C1CCC(=O)N1CN(C(C)=O)c1ccccc1Cl (stereo not given)
result: > 100 µM (inactive)

compound: O=C1CC(c2ccccc2)n2c(nc3ccccc32)N1 (stereo not given)
result: 71.8 µM (inactive)

compound: O=C(c1ccccc1)n1c(Cc2ccccc2)nc2cc(C34CC5CC(CC(C5)C3)C4)ccc21
result: 44.6 µM (inactive)

Now for the compound whose GI50 we want.
[Q] Need GI50 of CN(C)c1ccc(/C=C2\C[C@H]3[C@@H]4CCc5cc(O)ccc5[C@H]4CC[C@]3(C)C2=O)cc1 , thanks.
[A] 36 µM (inactive)

* * *

# Tested on: MCF7
# experimental protocol: NCI tumour cell line growth inhibition, 48 h
Activity calls are given as the source filed them. Rule as the data show it: active = GI50 up to about 1.1 µM and inactive = higher. Positions of bridges follow the written chain, without caps; N, C: chain ends. Non-standard residues stand in square brackets, D forms with d. Residues, ends and D or L forms follow the SMILES beside them. *: point of attachment. PhAc = O=C(Cc1ccccc1)*
Reported GI50 values for a set of compounds

compound: N#Cc1c(-c2ccc(F)cc2)c(-c2ccc(F)cc2)nn(CCO)c1=O
metric name: GI50
result: 3.16 µM (inactive)
--
compound: Cc1cn(C2CC(O)C(Cn3nncc3Cn3ccc(=O)[nH]c3=O)O2)c(=O)[nH]c1=O (stereo not given)
metric name: GI50
result: > 100 µM (inactive)

[Q] Need GI50 of CC(=O)Nc1c(C)cc(OCC(=O)O)cc1C , thanks.
[A] > 100 µM (inactive)

[Q] Field entry: O=C(Cc1ccccc1)N[C@@H]1COC(=O)[C@@H]2CCCN2C(=O)[C@@H]2CCCN2C1=O (PhAc-[dS]-Pro-Pro; ester 1-C)
[A] > 100 µM (inactive)

[Q] Field entry: NNC(=O)C(O)C(O)C(=O)NN (stereo not given)
[A] > 100 µM (inactive)

[Q] Field entry: C=C1CCCC(C)(C)C1CCC1(C)CCC(C(C)C(=O)OC)OO1 (stereo not given)
[A] > 21.5 µM (inactive)

[Q] Field entry: C=C(Br)C/N=C/N(C)C
[A] > 100 µM (inactive)

[Q] Field entry: CC1COC(c2cn[nH]c2C(N)=O)C1O (stereo not given)
[A] > 100 µM (inactive)

[Q] Field entry: CC(C)OC(=O)Nc1c([N+](=O)[O-])cc(C(F)(F)F)cc1[N+](=O)[O-]
[A] > 100 µM (inactive)

[Q] Field entry: C=C1C[C@@H](O)[C@@H](Br)C(C)(C)[C@@]12C=CC(O)(CBr)CC2 (stereo not given in full)
[A] 59.6 µM (inactive)

* * *

# Tested on: EKVX
# experimental protocol: NCI tumour cell line growth inhibition, 48 h
The source made the active and inactive calls. Cut-off read from the data, not from the text of the source: active = GI50 up to about 1.1 µM and inactive = higher.
Reported GI50 values for a set of compounds

Worked examples, 5 compounds total:
compound: CN(/N=C\c1ccnc2ccccc12)c1ccc([N+](=O)[O-])cc1
GI50: > 100 µM (inactive)
--
compound: O=C(CC1(O)C(=O)Nc2ccccc21)c1ccc(O)cc1 (stereo unspecified)
GI50: > 100 µM (inactive)
--
compound: O=[N+]([O-])C=C1c2ccccc2-c2ccccc21
GI50: 20.4 µM (inactive)
--
compound: COc1cc(S(=O)(=O)Nc2ccc(-c3csc(N4C(=O)CSC4c4cccc(Oc5ccccc5)c4)n3)cc2)ccc1Cl (stereo unspecified)
GI50: 44.2 µM (inactive)
--
compound: C#CCn1ncc2c(SCc3ccccc3)ncnc21
GI50: 97.7 µM (inactive)

[Q] Need GI50 of CCN(CC)C(=S)SC [METHYLDIETHYL CARBAMODITHIOATE] , thanks.
[A] > 100 µM (inactive)

[Q] Field entry: N#CC1(C#N)C2C=CC(c3coc4cccc2c34)C1(C#N)C#N (stereo unspecified)
[A] 15.5 µM (inactive)

[Q] Field entry: CCOC(=O)C/N=c1\nc(SC)sc2c(C(=O)OCC)nc(Sc3ccccc3)n12
[A] 45.1 µM (inactive)

[Q] Field entry: COc1cc2c(cc1OC)-c1cc3ccccc3c(=O)n1CCC2
[A] 21.9 µM (inactive)

[Q] Field entry: OCC12C3C4C1C1C2C3C41CO (stereo unspecified)
[A] > 100 µM (inactive)

[Q] Field entry: CCOC(=O)c1c(C)n(-c2ccc(C)cc2)c2c1cc(O)c1[nH]c3c(c12)CCCC3
[A] 26.1 µM (inactive)

[Q] Field entry: O=C(CCCC(=O)Nc1ccc(Cl)cc1Cl)CC(=O)c1ccc2ccccc2c1
[A] > 100 µM (inactive)

[Q] Field entry: Nc1nc2c3nc(Nc4ccccc4)sc3nc(=S)n2c2sc(Nc3ccccc3)nc12
[A] > 100 µM (inactive)

[Q] Field entry: Cc1ccc2c(c1)-c1c3c(nn1C)-c1ccccc1SC3O2 (stereo unspecified)
[A] 44.5 µM (inactive)

[Q] Field entry: CCOC(=O)N(CC)c1c(C(F)(F)F)cc(-c2ccccc2)[nH]c1=O
[A] 33.5 µM (inactive)

[Q] Field entry: COC(=O)[C@@]1(C(C)CC(=O)O)CCCCC1=O (stereo partly specified)
[A] > 100 µM (inactive)

[Q] Field entry: COC(=O)[C@H](Cc1ccccc1)NC(=O)[C@H](Cc1ccccc1)NC(=O)[C@@H]1CCCN1C(=O)N[C@H]1C2C=CC(C2)C1C(=O)N1CCC[C@H]1C(=O)N[C@@H](C)C(=O)N[C@H](C(=O)OC)C(C)C (stereo partly specified)
[A] > 100 µM (inactive)

[Q] Field entry: CC1CC(Br)C(=O)O1 (stereo unspecified)
[A] > 100 µM (inactive)

[Q] Field entry: O=C(CNc1ccccn1)Nn1cnc2ccc(S(=O)(=O)Nc3ccccn3)cc2c1=O
[A] > 100 µM (inactive)

[Q] Field entry: C=CCSc1ncnc2c1ncn2C1OC(CO)C(O)C1O (stereo unspecified)
[A] > 100 µM (inactive)

[Q] Field entry: CN(C)CCc1ccnc2nc(-c3ccc4ccccc4c3)cn12
[A] 38 µM (inactive)
